# study-system: Hepatocyte nuclear factor 6 (Homo sapiens)
# assay-name: ATG_HNF6_CIS: Attagene CIS-FACTORIAL HepG2 Assay for human Hepatocyte Nuclear Factor 6 (HNF6) (AID 2282952)
# condition-info: HepG2 Attagene cis-factorial HNF6 reporter transcription; actives raise or lower the signal
Active and inactive are the calls of the source. How the source made its calls: active means hit-call score of the fitted dose curve at least 0.9, where 1 is the maximum; inactive means score below 0.9.
Return exactly one item of active, inactive

smiles-notation | label-class
Oc1ccc2ccccc2c1 | inactive
O=C(O)Cn1c(=O)n(Cc2ccc(Br)cc2F)c(=O)c2ccc(Cl)cc21 | inactive
O=c1[nH]sc2ccccc12 | inactive
O=C(Nc1ccc(Cl)cc1)Nc1ccc(Cl)c(Cl)c1 | inactive
Cc1c2ccccc2c(C)c2c1ccc1ccccc12 | inactive
CCCC(=O)OCCC(C)C | inactive
CCCCCCCC[Si](OCC)(OCC)OCC | inactive
c1ccc2n[nH]nc2c1 | inactive

How did this test come out for CCN(CC)C(=O)c1cc(S(=O)(=O)Cc2ccccc2)c(N2CCC(c3ccccc3)CC2)cc1N(CC)CCN(C)C ?
inactive

How did this test come out for OCCO ?
inactive

How did this test come out for CC1=CC(=O)/C(=C(/C)O)C(=O)O1 ?
inactive

How did this test come out for CN(C)c1ccc(C(=C2C=CC(=[N+](C)C)C=C2)c2ccc(N(C)C)cc2)cc1 ?
inactive

How did this test come out for CC[C@@H]1C[C@H](N(Cc2cc(C(F)(F)F)cc(C(F)(F)F)c2)C(C)=O)c2cc(C(F)(F)F)ccc2N1C(=O)OC(C)C ?
inactive
